Hello, the source for this data is paper PMC11983213, in case you need it.

# Test system: MDA-MB-231 breast cancer cell line
# assay.protocol: MTT cytotoxicity assay on MDA-MB-231
# Format: cell-based
# recorded.conditions: Homo sapiens, MDA-MB-231, 48 h
Binarize IC50 at 80 µg/mL; below is Y, at or above is N.

compound: CC(=O)Oc1ccc2c(c1OC(C)=O)C(=O)c1ccccc1C2=O [alizarin-1,2-diacetate, 1,2-Diacetoxyanthraquinone]
classification: N
//
compound: O=C1c2ccccc2C(=O)c2c1ccc(O)c2O
classification: Y
//
compound: CC(=O)Oc1ccc2c(c1O)C(=O)c1ccccc1C2=O [alizarin-2-acetate]
classification: N
//
compound: COc1cccc2c1C(=O)c1c(O)c3c(c(O)c1C2=O)C[C@@](O)(C(=O)CO)C[C@@H]3O[C@H]1C[C@H](N)[C@H](O)[C@H](C)O1 [Doxorubicin, reference compound]
classification: Y
//
compound: COc1ccc2c(c1O)C(=O)c1ccccc1C2=O [2-methyl alizarin, 1-Hydroxy-2-methoxyanthracene-9,10-dione]
classification: N

Please find the next compound below.
Dear reviewer, please state whether O=C1c2ccccc2C(=O)c2c(O)c(O)cc(O)c21 has IC50 strictly beneath 80 µg/mL.
N
